Origin of values: PubChem BioAssay (NCI)

# System: CCRF-CEM leukemia
# method_notes: NCI-60 one-dose screen, 48 h (100 = growth as untreated, 0 = no growth, -100 = all killed)
# details: 10 µM unless noted
Compounds without any hit were thinned out: in the full panel of roughly 83,000, 20% have a hit.
Param label: returns yes (1) when growth < 80%, returns no (0) otherwise, including exact equality.

Example results:
In the record for Brc1ccc2[nH]cc(-c3nc(-c4c[nH]c5ccncc45)cs3)c2c1 , is growth less than 80%?
yes (1)

In the record for CCOC(=O)c1c(C)nc2c(c1N)CC(=O)N2Cc1ccc(F)cc1 , is growth less than 80%?
no (0)

---
In the record for COc1ccc(/C=C/c2c(C(=O)/C=C/c3ccc(Cl)cc3)c(C)nc3ccccc23)cc1 , is growth less than 80%?
yes (1)

In the record for C/C(=N/NC(N)=S)c1sc(Nc2cccc(Cl)c2)nc1C , is growth less than 80%?
no (0)

In the record for Cc1ccc(-c2nc3c(c(-c4ccccc4)nn3-c3ccccc3)c(-c3ccc(O)cc3)c2C#N)cc1 , is growth less than 80%?
yes (1)

====

# Tested on: UO-31 renal
# method_notes: NCI-60 one-dose screen, 48 h
# details: 10 µM unless noted
The panel holds about 83,000 compounds, 20% with a hit somewhere; the sample as a whole holds those more often. Calls of active or inactive are those of the source. How the source made its calls: active means growth percent below 10; inactive means the rest.
Please state which outcome applies, choosing from active, inactive

Recorded test call requested for COc1cccc(Oc2ccccc2NC(=O)CNC(=O)c2cccc3ccccc23)c1
inactive

Recorded test call requested for NC(=O)Nc1ccc2ncnc(Nc3ccc(Cl)cc3)c2c1
inactive

Recorded test call requested for Cc1oc2nc[nH]c(=O)c2c1C(=O)/C=C/c1ccc(Br)cc1
inactive

Recorded test call requested for CCCCCCNC(=O)Oc1ccc(/C(=C(\C)c2ccc(Cl)cc2)c2ccc(OCCCN(C)C)cc2)cc1
inactive

====

# Test system: HOP-62 NSCLC
# method_notes: NCI-60 one-dose screen, 48 h (100 = growth as untreated, 0 = no growth, -100 = all killed)
# details: 10 µM unless noted
Compounds without any hit were thinned out: in the full panel of roughly 83,000, 20% have a hit.
parameter: growth (%)
One number for each entry, in %.

Write down the reported growth (system: HOP-62 NSCLC) of COc1ccc(N)c(N)c1
105

Write down the reported growth (system: HOP-62 NSCLC) of O=C(Nc1ccc(OS(=O)(=O)c2ccc(F)cc2)cc1)c1ccc(Cl)cc1
101

Write down the reported growth (system: HOP-62 NSCLC) of CC(=O)CC(c1cccs1)c1c(-c2ccccc2)[nH]c2ccccc12 (stereo not given)
89.5

Write down the reported growth (system: HOP-62 NSCLC) of CCOC(=O)Nc1ccc(-c2nc(-c3cccc(OC)c3)c(-c3ccnc(Br)c3)[nH]2)cc1
30.2

Write down the reported growth (system: HOP-62 NSCLC) of CNCCCC12CCC(c3ccccc31)c1ccccc12
82.9

Please give growth for each item listed below.
1. O=S(=O)(Nc1ccc(-c2nc(-c3cccc(OCCN4CCOCC4)c3)c(-c3ccnc(Br)c3)[nH]2)cc1)c1ccccc1
2. CC1=C(C)C(=O)C(Nc2cccc(C(=O)OC(C)(C)C)c2)=C(Br)C1=O
3. Cc1cccc2c1S/C(=C/c1ccc([N+](=O)[O-])cc1)C2=O
4. O=c1c2cc(F)ccc2sc2c(NCCCNCCO)nc3ccc(F)cc3c12

40.3
92.6
92.5
71.5

Please give growth for each item listed below.
1. Cc1ccc(-c2nc(N3CCN(CC(=O)Nc4ccc(Cl)cc4)CC3)c3ccccc3n2)cc1
2. COc1ccc(C2CC(c3ccc(Nc4ccnc5cc(Cl)ccc45)cc3)=NN2C=O)cc1 (stereo not given)
3. COc1ccc(C(=O)COC(=O)[C@H](C[Se][Se]C[C@H](NC(=O)c2ccc(Br)cc2F)C(=O)OCC(=O)c2ccc(OC)cc2)NC(=O)c2ccc(Br)cc2F)cc1
4. CCCCn1c(=O)c(-c2cc(-c3ccc(Cl)cc3)nc(-c3ccc(Cl)cc3)c2)cc2cc(C)ccc21
5. O=C(O)CCC(=O)Nc1nnc(-c2ccccc2)s1
6. CCc1cccc2c1S/C(=C/c1ccc(OC)cc1)C2=O
7. CCN(CC)c1ccc(C2=NN(C(C)=O)C(c3cc(OC)c(OC)c(OC)c3)C2)cc1 (stereo not given)
8. COc1ccc(-c2csc(NC(=O)N3CCN(c4cc5c(cc4F)c(=O)c(C(=O)O)cn5C4CC4)CC3)n2)cc1

1: 103; 2: 90.7; 3: -72.4; 4: 102; 5: 94.2; 6: 45.4; 7: 40.7; 8: 20

Please give growth for each item listed below.
1. O=[N+]([O-])c1ccc(Cl)c(-c2cc(CCCCO)on2)c1
2. O=c1c2cc(F)ccc2sc2c(NCCN3CCOCC3)nc3ccccc3c12
3. C[N+]1=C(/C=C/c2ccc(O)c3ncccc23)C(C)(C)c2ccccc21

[106, 80.9, 30]
